system: HaCat; test: Cytotoxic Profiling of Annotated Libraries Using Quantitative High-Throughput Screening (AID 1296008); details: Five cell lines viability, CellTiter-Glo ATP luminescence, 48-72 h; also: nearly all actives have a fitted effect of over 60% in size
Inconclusive results are not listed. Active and inactive are the calls of the source. Calls follow the shape of the dose curve; as a rule, active = well fitted inhibition curve with a large enough effect; inconclusive = small, poorly fitted or top-dose-only effect; inactive = flat fitted curve, though single readings scatter.
Property Name: outcome

• CC[C@]1(O)C[C@H]2CN(CCc3c([nH]c4ccccc34)[C@@](C(=O)OC)(c3cc4c(cc3OC)N(C=O)[C@H]3[C@@](O)(C(=O)OC)[C@H](OC(C)=O)[C@]5(CC)C=CCN6CC[C@]43[C@@H]65)C2)C1 = inactive
• Nc1ccc(S(N)(=O)=O)cc1 = inactive
• CN(c1nccc(=O)[nH]1)C1CCN(c2nc3ccccc3n2Cc2ccc(F)cc2)CC1 = inactive

* * *

test: High-throughput drug toxicity screening in the BPDCN cell line Cal-1 (AID 1224825); conditions: Cal-1 BPDCN cell viability, qHTS; at 45.8 µM (top of the series) unless noted;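 also: cells exposed to compounds for 48 h; 100% = DMSO and 0% = bortezomib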
Property Name: viability (% of control) (%)
Answer format: numeric, % implied, no suffix.

Enquiry: Quick check: viability (% of control) of `O=C(O)c1cccc(-c2noc(-c3ccccc3F)n2)c1` ?
Return: 93.8

Enquiry: Another molecule: `O=c1oc2cc(O)ccc2s1`
Return: 92.8

* * *

experiment: qHTS of pediatric cancer cell lines to identify multiple opportunities for drug repurposing: Primary screen for SK-N-MC cells (AID 1347093); settings: SK-N-MC viability, CellTiter-Glo luminescence, 48 h; series mostly up to 46 µM;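 also: plate controls were DMSO neutral control for no effect and bortezomib for full effect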
Inconclusive results are not listed. Active and inactive are the calls of the source. The call rests on the fitted dose curve; in most records, active means well fitted cell-killing curve with a large enough effect; inconclusive means small, poorly fitted or top-dose-only effect; inactive means no such curve, though single readings can be large or run the other way.
Give your call using only these classes: true (1) (active), false (0) (inactive)

Enquiry: Query: recorded result category for `COc1c2occc2cc2ccc(=O)oc12` in this test
Return: false (0)

* * *

Experiment: Quantitative High-Throughput drug screen in 47 multiple myeloma cell lines against the NCATS MIPE library collection: XG1_PLB cell viability assay (AID 1919866); also: nearly all actives have a fitted effect of over 35% in size
Conditions: CellTiter-Glo ATP, 48 h; series mostly up to 45.8 µM
Excerpt: PI: Beverly A. Mock Ph.D. Laboratory of Cancer Biology and Genetics, Center for Cancer Research, National Cancer Institute, National Institute of Health, Bethesda, Maryland […] 5; Detector; 425V; Luminescence; Viewlux PerkinElmer. […] 1. […] Briefly, the corresponding myeloma cell lines were screened in 1,536-well plates with 500 cells, 5-uL per well for inhibition of cell viability (assessed by measuring ATP levels with CellTiterGlo). […]
Results filed as inconclusive are left out. Activity calls are given as the source filed them. Calls follow the shape of the dose curve; as a rule, active = well fitted cell-killing curve with a large enough effect; inconclusive = small, poorly fitted or top-dose-only effect, or effect the other way; inactive = no such curve, though single readings can be large or run the other way.
Give your call using only these classes: active, inactive

These recorded examples may help you get a feel for the data.
* Clc1ccc(C(Cn2ccnc2)OCc2ccsc2Cl)c(Cl)c1 (stereo not given) | active
* CC(C)c1nc(CN(C)C(=O)N[C@H](C(=O)N[C@@H](Cc2ccccc2)C[C@H](O)[C@H](Cc2ccccc2)NC(=O)OCc2cncs2)C(C)C)cs1 | inactive
* COc1cc(Nc2c(C#N)cnc3cc(OCCCN4CCN(C)CC4)c(OC)cc23)c(Cl)cc1Cl | active
* CN(c1nccc(=O)[nH]1)C1CCN(c2nc3ccccc3n2Cc2ccc(F)cc2)CC1 | active

Enquiry: Query: recorded result category for C[Se]CCC(N)C(=O)O (stereo not given) in this test
Return: inactive

Enquiry: Another molecule: `CN(C)c1ccc2nc3ccc(=[N+](C)C)cc-3sc2c1`
Return: active

Enquiry: Another molecule: `CC(C)c1ccc2c(c1)c(SC(C)(C)C)c(CC(C)(C)C(=O)O)n2Cc1ccc(Cl)cc1`
Return: active

Enquiry: Another molecule: COC(=O)C1=C(C)NC(C)=C(C(=O)OCCCN2CCC(c3ccccc3)(c3ccccc3)CC2)C1c1cccc([N+](=O)[O-])c1 (stereo not given)
Return: inactive

Enquiry: Another molecule: `Nc1nc(N)c(N=O)c(OCC2CCCCC2)n1`
Return: active

Enquiry: Another molecule: `O=C(O)c1cn(-c2ccc(F)cc2)c2cc(N3CCNCC3)c(F)cc2c1=O`
Return: inactive
